# experimental system: RORc ligand binding domain (Homo sapiens, UniProt P51449)
# Construct: host or cells: E. coli
# assay method text: In Vitro RORc Ligand Binding Assay (25-[3H]hydroxycholesterol radioligand filtration)
# condition: read-out: RORc IC50
pIC50: −log10 of the molar value.
assay endpoint: pIC50

a = CC(=O)N1CCN(c2ccc(CN3[C@@H](C)CCC(c4ccccc4)S3(=O)=O)c(F)c2)[C@@H](C(=O)O)C1 (stereo partly shown)
b = C[C@H]1CCC(c2ccccc2)S(=O)(=O)N1Cc1ccc(N2CCN3C(=O)CNC(=O)[C@@H]3C2)cc1F (stereo partly shown)
c = COC(=O)C1(n2cnnc2)CCN(c2ccc(CN3[C@@H](C)CCC(c4ccccc4)S3(=O)=O)c(F)c2)CC1 (stereo partly shown) [Example 426]
d = C[C@H]1CCC(c2ccccc2)S(=O)(=O)N1Cc1ccc(OC2CCOC2)cc1 (stereo partly shown)
Asked: Give the ascending ranking of the items by reported pIC50. Please respond with the labels ordered as the question requires.
Given back: b, a, c, d
(b: 5.55, a: 5.95, c: 6.34, d: 6.57)

###

# experimental system: RORc ligand binding domain (Homo sapiens)
# Construct: host or cells: E. coli
# Sequence (P51449 269-508 limits assumed): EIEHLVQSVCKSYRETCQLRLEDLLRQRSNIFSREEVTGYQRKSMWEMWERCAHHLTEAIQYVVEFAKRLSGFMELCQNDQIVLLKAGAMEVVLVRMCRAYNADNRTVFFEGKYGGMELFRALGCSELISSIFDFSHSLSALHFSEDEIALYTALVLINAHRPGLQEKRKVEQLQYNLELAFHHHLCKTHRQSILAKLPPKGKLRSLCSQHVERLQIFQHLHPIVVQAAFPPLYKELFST
# assay method text: In Vitro RORc Ligand Binding Assay (25-[3H]hydroxycholesterol radioligand filtration)
# condition: In Vitro RORc Ligand Binding Assay; Table 4; read-out: RORc IC50
assay endpoint: IC50 (nM)

Solved entries (count: 5):
{"molecule": "CC(=O)N1CCN(c2ccc(CN3[C@@H](C)CCC(c4ccccc4)S3(=O)=O)c(C)c2)CC1 (single isomer, unassigned) [Example 132]", "unit spec": "nM", "IC50": 3930}
{"molecule": "CNC(=O)[C@H]1CN(c2ccc(CN3[C@@H](C)CCC(c4ccccc4)S3(=O)=O)c(F)c2)CCN1C(C)=O (some centres unmarked)", "unit spec": "nM", "IC50": 705}
{"molecule": "CC(=O)N1CCN(c2ccc(CN3CCC(c4ccc(F)cc4)S3(=O)=O)c(F)c2)CC1 (centres unmarked)", "unit spec": "nM", "IC50": 7600}
{"molecule": "CC(=O)N1CCN(c2ccc(CN3CCCC(c4ccccc4)S3(=O)=O)c(F)c2)CC1 (single isomer, unassigned) [Example 2]", "unit spec": "nM", "IC50": 157}
{"molecule": "C[C@H]1CCC(c2ccccc2)S(=O)(=O)N1Cc1ccc(C(=O)N2CCCC(CO)C2)cc1 (some centres unmarked)", "unit spec": "nM", "IC50": 2040}

A = CC(=O)N1CCN(c2ccc(CN3C4CCCC4CC(c4ccccc4)S3(=O)=O)c(F)c2)CC1 (single isomer, unassigned) [Example 248]
B = C[C@H]1CCC(c2ccccc2)S(=O)(=O)N1Cc1ccc(C(=O)N2CC3(CCCOC3)C2)cc1 (some centres unmarked)
Asked: Just tell me: smaller IC50 value, A or B ? Choose, then provide that item's label.
Given back: A

a = C[C@H]1CCC(c2ccccc2)S(=O)(=O)N1Cc1ccc(C(=O)N2CCN(C)C(=O)C2)cc1 (some centres unmarked)
b = CC(=O)N1CCN(c2ccc(CN3CCCC(c4ccc(F)cc4)S3(=O)=O)c(F)c2)CC1 (single isomer, unassigned) [Example 12]
Asked: Which value of IC50 is numerically greater: that of a or that of b ? Choose, then provide that item's label.
Given back: a
(a: 2430 nM, b: 241 nM)
